Tested on: nude mice, LX-1 lung xenograft intrarenal, tumor weight T/C
Experiment: NCI In Vivo Anticancer Drug Screen. Data for tumor model Human Lung LX-1 Xenograft (intrarenal inoculation) in NU/NU Swiss (nude) mice
Conditions: endpoint: mean tumor weight change; dose: 100.0 mg/kg/injection; schedule: Q04DX003 (sc); vehicle: saline with Tween-80; higher = larger tumour
Inconclusive results are not listed.
The following compounds are shown together with reported T/C values.

{"compound": "C/C(=N\\NC(N)=O)c1cccc(/C(C)=N/NC(N)=O)n1", "T/C": "83 % of control"}
{"compound": "CN=C(N)N/N=C(\\C)c1ccc2c(c1)Cc1cc(/C(C)=N/NC(N)=NC)ccc1-2", "T/C": "69 % of control"}
{"compound": "COc1cc(C(C)(C)C)cc(OC)c1C(O)(c1c(OC)cc(C(C)(C)C)cc1OC)c1c(OC)cc(C(C)(C)C)cc1OC", "T/C": "91 % of control"}
{"compound": "O=c1c(O)c(-c2cc(O)c(O)c(O)c2)oc2cc(O)cc(O)c12", "T/C": "83 % of control"}
{"compound": "C/C=C/C=C1/OC(C)=C(C(C)=O)C1=O", "T/C": "107 % of control"}
{"compound": "O=Cc1ccc(O)c(O)c1", "T/C": "172 % of control"}
{"compound": "Cc1cc2cc3cc(C)c(N)cc3nc2cc1N", "T/C": "77 % of control"}
{"compound": "NC(=S)N/N=C/c1ccc(O)cn1", "T/C": "94 % of control"}
{"compound": "COc1cc2c[n+](C)c3c4cc5c(cc4ccc3c2cc1OC)OCO5", "T/C": "157 % of control"}
{"compound": "CSc1ccc2c(c1)C(N1CCN(C)CC1)Cc1ccccc1S2 (stereo not given)", "T/C": "171 % of control"}
